molecular target: Multidrug resistance-associated protein 1 (Homo sapiens); assay: MRP1 antagonism was determined percentage of MCF-7/VP cells surviving in the absence of vincristine/percentage of MCF-7/VP cells surviving in the presence of vincristine; assay type: functional
Sequence (P33527 whole entry): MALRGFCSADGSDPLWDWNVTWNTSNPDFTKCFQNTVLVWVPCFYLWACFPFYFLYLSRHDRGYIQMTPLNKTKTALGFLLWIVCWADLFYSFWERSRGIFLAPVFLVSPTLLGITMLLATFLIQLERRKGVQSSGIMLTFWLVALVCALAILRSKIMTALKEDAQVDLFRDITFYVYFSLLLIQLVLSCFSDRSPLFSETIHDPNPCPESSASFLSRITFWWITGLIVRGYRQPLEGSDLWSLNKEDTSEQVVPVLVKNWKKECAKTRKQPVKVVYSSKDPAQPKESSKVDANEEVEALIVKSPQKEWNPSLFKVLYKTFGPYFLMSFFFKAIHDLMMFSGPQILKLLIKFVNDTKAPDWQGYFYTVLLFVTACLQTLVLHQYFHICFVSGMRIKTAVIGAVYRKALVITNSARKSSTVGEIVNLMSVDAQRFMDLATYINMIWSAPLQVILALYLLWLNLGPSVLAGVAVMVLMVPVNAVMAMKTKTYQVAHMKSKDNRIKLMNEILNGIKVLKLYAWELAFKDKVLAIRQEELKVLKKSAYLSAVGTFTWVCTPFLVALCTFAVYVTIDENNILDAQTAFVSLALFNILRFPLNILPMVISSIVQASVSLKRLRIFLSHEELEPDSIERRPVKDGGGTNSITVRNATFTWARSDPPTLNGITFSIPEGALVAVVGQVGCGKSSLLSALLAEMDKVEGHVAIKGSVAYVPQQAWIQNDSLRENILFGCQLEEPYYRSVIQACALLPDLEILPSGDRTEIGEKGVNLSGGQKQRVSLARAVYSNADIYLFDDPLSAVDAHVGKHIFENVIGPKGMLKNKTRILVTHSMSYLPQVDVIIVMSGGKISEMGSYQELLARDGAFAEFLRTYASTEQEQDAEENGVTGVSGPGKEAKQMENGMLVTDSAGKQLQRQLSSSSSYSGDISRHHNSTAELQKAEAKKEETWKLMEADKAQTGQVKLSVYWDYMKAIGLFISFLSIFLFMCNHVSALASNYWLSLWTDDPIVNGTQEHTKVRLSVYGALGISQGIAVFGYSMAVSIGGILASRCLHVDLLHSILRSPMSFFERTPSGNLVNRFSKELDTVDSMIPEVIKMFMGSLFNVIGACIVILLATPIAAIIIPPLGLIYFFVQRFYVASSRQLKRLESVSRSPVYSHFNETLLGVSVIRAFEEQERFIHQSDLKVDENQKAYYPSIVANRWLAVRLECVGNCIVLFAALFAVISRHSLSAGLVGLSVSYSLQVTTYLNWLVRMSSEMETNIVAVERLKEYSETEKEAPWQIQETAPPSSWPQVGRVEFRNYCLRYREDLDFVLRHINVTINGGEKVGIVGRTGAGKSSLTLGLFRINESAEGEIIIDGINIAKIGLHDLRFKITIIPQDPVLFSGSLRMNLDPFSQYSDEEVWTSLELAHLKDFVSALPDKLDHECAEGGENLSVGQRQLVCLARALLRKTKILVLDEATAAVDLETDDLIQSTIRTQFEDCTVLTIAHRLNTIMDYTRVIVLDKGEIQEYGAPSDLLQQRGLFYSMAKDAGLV
reported property: Ratio
Write the number on its own, no unit after it.

Answered examples (3):
1) Nc1c2c(nc3cc(Br)ccc13)N(C1CCCCC1)CC2	1
2) CN1CCc2c1nc1ccccc1c2NC(=O)C12CC3CC(CC(C3)C1)C2	0.9
3) CC(C)NCC(=O)Nc1c2c(nc3ccccc13)N(Cc1ccccc1)CC2	1

*Q* Form field: reported Ratio of CC(C)NCC(=O)Nc1c2c(nc3ccccc13)N(C)CC2
*A* 1.4

*Q* Quick one: Ratio of CC(C)(C)NCC(=O)Nc1c2c(nc3ccccc13)N(Cc1ccccc1)CC2 ?
*A* 0.9

*Q* Could you share which Ratio value was measured for CCN(CC)CC(=O)Nc1c2c(nc3ccccc13)N(C)CC2 ?
*A* 1.2

// data source = ChEMBL document CHEMBL1149323
